Tested on: C. trachomatis L2/434/Bu expressing GFP (CTL2-GFP)
Construct: L2/434/Bu GFP intracellular growth in HeLa cells
Assay: microbe, parasite or virus in culture
Set-up: C. trachomatis total inclusion area by high-content imaging, normalised to DMSO
Details: Chlamydia trachomatis, HeLa, 28.5 h; read-out: IC50 (µM), total inclusion area
METRIC_NAME: IC50 (µM)
The answer is to be given in µM; state only the numeric part.

INPUT: Request the reported IC50 associated with O=C(NN=Cc1ccc([N+](=O)[O-])o1)c1nc(-c2ccccc2)cc(-c2ccccc2)n1 [c3e]
OUTPUT: 0.133

---

Recorded measurements of viability at 28.5 h, 10 µM, one per entry
Assay: in vitro
Conditions: human, hela cells, % viability
The answer is to be given in %; state only the numeric part.

INPUT: Request the reported viability at 28.5 h, 10 µM associated with Cc1cc(Cl)ccc1CNC(=O)C1(c2ccccc2)CCCC1 [CBK149519]
OUTPUT: 88.6

INPUT: Request the reported viability at 28.5 h, 10 µM associated with COC(=O)[C@H]1CN(C(=O)CN2CCCC2=O)C[C@@H]1c1ccccc1F [CBK283518]
OUTPUT: 89.2

INPUT: Request the reported viability at 28.5 h, 10 µM associated with COc1ccccc1-c1cc(C(=O)NCCCN2CCOCC2)c2ccccc2n1 [CBK267780]
OUTPUT: 83.8

INPUT: Request the reported viability at 28.5 h, 10 µM associated with Cc1cc(C)c(C(=O)N2CCN(CCNC(=O)C3CCCC3)CC2)[nH]1 [CBK305315]
OUTPUT: 89.5

INPUT: Request the reported viability at 28.5 h, 10 µM associated with c1ccc(C(CCN2CCc3ccccc3C2)c2ccccc2)cc1 [CBK126404]
OUTPUT: 99.1

INPUT: Request the reported viability at 28.5 h, 10 µM associated with Cc1ccccc1C(NC(=O)C1CCN(C/C=C/c2ccccc2)CC1)c1ncccc1C (stereo not drawn) [CBK147980]
OUTPUT: 102

INPUT: Request the reported viability at 28.5 h, 10 µM associated with CC1CCCCN1C(=O)c1cccc(Cn2cc(Br)c([N+](=O)[O-])n2)c1 (stereo not drawn) [CBK058788]
OUTPUT: 104

INPUT: Request the reported viability at 28.5 h, 10 µM associated with CCOCCCNc1nc2c(c(=O)[nH]c(=O)n2C)n1CCC(C)C [CBK287968]
OUTPUT: 87.7

INPUT: Request the reported viability at 28.5 h, 10 µM associated with COCc1cccc(-c2ncc(OC)nc2NC(=O)c2c(C)noc2C)c1 [CBK145237]
OUTPUT: 95.6

---

Recorded measurements of viability at 28.5 h, 10 µM, one per entry
Assay: in vitro
Conditions: human, hela cells, % viability
The answer is to be given in %; state only the numeric part.

CCCc1cc(C(=O)N2CCN(C)C3(CCNC(=O)CC3)C2)ccn1 (stereo not shown) : 96.2
CCc1cn(CC(C(=O)OC)N(C)C)c(=O)[nH]c1=O (stereo not shown) : 107
O=C(CCCn1c(=O)[nH]c2ccsc2c1=O)Nc1ccc(F)cc1 : 93.3
COc1ccc(-c2nc3ccccc3o2)cc1NC(=O)C(C)Oc1ccc(Cl)cc1Cl (stereo not shown) : 76.4
C=CCn1c(Cc2csc(NC(=O)CCc3nc4ccccc4c(=O)[nH]3)n2)n[nH]c1=S : 88.8

INPUT: Request the reported viability at 28.5 h, 10 µM associated with CC(C)CNC(=O)C1CCN(C(=O)c2cccc(F)c2)CC1
OUTPUT: 112

INPUT: Request the reported viability at 28.5 h, 10 µM associated with CC(=O)OC1CCn2c1nc1cc(C(F)(F)F)ccc12 (stereo not shown)
OUTPUT: 75.1

INPUT: Request the reported viability at 28.5 h, 10 µM associated with CN(C)c1cccc(C(=O)Nc2cnc(-c3cccc(C(F)(F)F)c3)c(-c3cccnc3)n2)c1
OUTPUT: 90.4

INPUT: Request the reported viability at 28.5 h, 10 µM associated with Cc1ccc(-c2csc3ncnc(NCCCc4n[nH]c(N)c4C#N)c23)cc1
OUTPUT: 98.1
